# maps each entry to its GSTP1-1 specific activity
target: hGSTP1-1 (Homo sapiens, UniProt P09211); test: Specific activity / enzyme kinetics of GST towards compounds in presence of GSH; assay type: biochemical; details: compound 50 µM, 37 °C
Sequence (P09211 2-210 limits assumed): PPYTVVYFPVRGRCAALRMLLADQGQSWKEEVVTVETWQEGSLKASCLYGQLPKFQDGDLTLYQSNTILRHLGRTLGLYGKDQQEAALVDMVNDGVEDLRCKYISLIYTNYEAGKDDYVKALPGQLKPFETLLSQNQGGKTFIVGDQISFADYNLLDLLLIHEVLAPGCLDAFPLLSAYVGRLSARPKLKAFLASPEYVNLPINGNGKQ
parameter measured: GSTP1-1 specific activity (µmol/mg/min)

CCOC(=O)N1CCCN(/[N+]([O-])=N/Oc2ccc([N+](=O)[O-])cc2[N+](=O)[O-])CC1 = 0.16
COC(=O)N1CCN(/[N+]([O-])=N/Oc2ccc([N+](=O)[O-])cc2[N+](=O)[O-])CC1 = 0.98
CCOC(=O)N1C(C)CN(/[N+]([O-])=N/Oc2ccc([N+](=O)[O-])cc2[N+](=O)[O-])CC1C (centres unmarked) = 1.17
CCOC(=O)N1CCN(/[N+]([O-])=N/Oc2ccc([N+](=O)[O-])cc2[N+](=O)[O-])CC1C (centres unmarked) = 1.15
CCOC(=O)N1CCN(/[N+]([O-])=N/Oc2ccc([N+](=O)[O-])cc2[N+](=O)[O-])C(C)C1 (centres unmarked) = 0.88
CCCOC(=O)N1CCN(/[N+]([O-])=N/Oc2ccc([N+](=O)[O-])cc2[N+](=O)[O-])CC1 = 1.2
CCOC(=O)N1CC(C)N(/[N+]([O-])=N/Oc2ccc([N+](=O)[O-])cc2[N+](=O)[O-])CC1C (centres unmarked) = 0.14
CCOC(=O)N1CCN(/[N+]([O-])=N/Oc2ccc([N+](=O)[O-])cc2[N+](=O)[O-])CC1 = 1.36
